# protocol description: Tested in vitro against HCMV AD-169 strain in MRC-5 cells
# Format: ADME, organism-based, MRC5
# condition details: human betaherpesvirus 5, MRC-5 cells; read-out: TC50 (the source's name)
Quick reference: CC50 of the listed items.

Example compounds with recorded CC50:
compound="[N-]=[N+]=NCC(Cn1cnc2c(O)nc(N)nc21)OCP(=O)(O)O (single isomer, unassigned; form 2)" reported="> 300 µM"
compound="Nc1nc2c(ncn2CC(CO)OCP(=O)(O)O)c(=O)[nH]1 (single isomer, unassigned; form 1)" reported="> 310 µM"

Query CC50 for C[C@H](Cn1cnc2c(O)nc(N)nc21)OCP(=O)(O)O
> 330 µM

Query CC50 for Nc1nc(O)c2ncn(CC(CF)OCP(=O)(O)O)c2n1 (single isomer, unassigned; form 2)
> 310 µM

Query CC50 for [N-]=[N+]=NCC(Cn1cnc2c(O)nc(N)nc21)OCP(=O)(O)O (single isomer, unassigned; form 1)
> 300 µM

Query CC50 for Nc1nc(O)c2ncn(CC(CCl)OCP(=O)(O)O)c2n1 (single isomer, unassigned; form 2)
300 µM

Query CC50 for C[C@@H](Cn1cnc2c(O)nc(N)nc21)OCP(=O)(O)O
> 330 µM

---

# System: Human immunodeficiency virus 1
# protocol description: Tested in vitro against human immunodeficiency virus (HIV) infected CEM cells using XTT assay (HIV-HRF strain)
# Type: functional, organism-based
# condition details: Human immunodeficiency virus 1, CCRF-CEM
property label: log10(IC50) (log10 of the value in µM)
Use the decimal logarithm of IC50 (µM).

Example compounds with recorded log10(IC50):
compound="[N-]=[N+]=NCC(Cn1cnc2c(O)nc(N)nc21)OCP(=O)(O)O (single isomer, unassigned; form 1)" assayed_system="Human immunodeficiency virus 1" reported=0.70
compound=CC[C@@H](Cn1cnc2c(O)nc(N)nc21)OCP(=O)(O)O assayed_system="Human immunodeficiency virus 1" reported=2.40
compound=C=C[C@H](Cn1cnc2c(O)nc(N)nc21)OCP(=O)(O)O assayed_system="Human immunodeficiency virus 1" reported=1.11
compound="[N-]=[N+]=NCC(Cn1cnc2c(O)nc(N)nc21)OCP(=O)(O)O (single isomer, unassigned; form 2)" assayed_system="Human immunodeficiency virus 1" reported=1.71
compound=CC[C@H](Cn1cnc2c(O)nc(N)nc21)OCP(=O)(O)O assayed_system="Human immunodeficiency virus 1" reported=1.73

Query log10(IC50) for C=C[C@@H](Cn1cnc2c(O)nc(N)nc21)OCP(=O)(O)O
1.69

---

# protocol description: Tested in vitro against HSV 2 from WI-38 cells
# Format: organism-based
# condition details: human alphaherpesvirus 2, WI-38 cells; read-out: TC50 (the source's name)
property label: CC50

Query CC50 for CC[C@H](Cn1cnc2c(O)nc(N)nc21)OCP(=O)(O)O
> 300 µM

---

# protocol description: Tested in vitro against HCMV AD-169 strain in MRC-5 cells
# Type: ADME, organism-based, MRC5
# condition details: human betaherpesvirus 5, MRC-5 cells; read-out: TC50 (the source's name)
Quick reference: CC50 of the listed items.

Query CC50 for Nc1nc(O)c2ncn(C[C@H](CCO)OCP(=O)(O)O)c2n1
> 300 µM

Query CC50 for C=C[C@@H](Cn1cnc2c(O)nc(N)nc21)OCP(=O)(O)O
> 300 µM

Query CC50 for Nc1nc(O)c2ncn(CC(CO)OCP(=O)(O)O)c2n1 (single isomer, unassigned; form 2)
> 310 µM

Query CC50 for Nc1nc(O)c2ncn(CC(CF)OCP(=O)(O)O)c2n1 (single isomer, unassigned; form 1)
> 310 µM

Query CC50 for Nc1nc(O)c2ncn(CC(CCl)OCP(=O)(O)O)c2n1 (single isomer, unassigned; form 1)
> 300 µM
